Numbers sourced from ChEMBL document CHEMBL1201862.

Test system: KM12
Test: NCI tumour cell line growth inhibition, 48 h
The source made the active and inactive calls. Rule as the data show it: active = GI50 up to about 1.1 µM and inactive = higher.
Can you answer with just one of these options? true (1) for active, false (0) for inactive

Worked examples follow.
1. CCOC(=O)N1CCc2cc(OC)c(OC)cc2/C1=C\c1ccc(OC)c(OC)c1 : false (0)
2. COC(=O)[C@@H](NC1(c2ccccc2)c2ccccc2-c2ccccc21)[C@H](OC(=O)[C@H]1CCCN1S(=O)(=O)c1ccccc1)C(=O)OC : false (0)

Req: Test call for this compound, please: Nc1ccc(/N=N/c2ccc(/C=C/c3ccc(/N=N/c4ccc(N)c5ccc(S(=O)(=O)O)cc45)cc3S(=O)(=O)O)c(S(=O)(=O)O)c2)c2cc(S(=O)(=O)O)ccc12
Resp: false (0)

Req: # lookup: test call for Fc1c(F)c(F)c2c(c1F)CSc1nc3ccccc3n1-2
Resp: false (0)
